Target: Macrophage-stimulating protein receptor (Homo sapiens) (UniProt Q04912);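 note: reported values are the mean percent inhibition of RON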
Sequence (Q04912 25-304 limits assumed): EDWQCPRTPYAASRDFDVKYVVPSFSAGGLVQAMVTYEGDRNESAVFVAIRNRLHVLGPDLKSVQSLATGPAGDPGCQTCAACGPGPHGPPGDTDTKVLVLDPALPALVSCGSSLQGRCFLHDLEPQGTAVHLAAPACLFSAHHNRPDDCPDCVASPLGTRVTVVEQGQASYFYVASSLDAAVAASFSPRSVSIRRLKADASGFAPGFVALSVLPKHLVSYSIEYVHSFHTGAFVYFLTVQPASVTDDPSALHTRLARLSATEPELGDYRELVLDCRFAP
Sequence (Q04912 310-1400 limits assumed): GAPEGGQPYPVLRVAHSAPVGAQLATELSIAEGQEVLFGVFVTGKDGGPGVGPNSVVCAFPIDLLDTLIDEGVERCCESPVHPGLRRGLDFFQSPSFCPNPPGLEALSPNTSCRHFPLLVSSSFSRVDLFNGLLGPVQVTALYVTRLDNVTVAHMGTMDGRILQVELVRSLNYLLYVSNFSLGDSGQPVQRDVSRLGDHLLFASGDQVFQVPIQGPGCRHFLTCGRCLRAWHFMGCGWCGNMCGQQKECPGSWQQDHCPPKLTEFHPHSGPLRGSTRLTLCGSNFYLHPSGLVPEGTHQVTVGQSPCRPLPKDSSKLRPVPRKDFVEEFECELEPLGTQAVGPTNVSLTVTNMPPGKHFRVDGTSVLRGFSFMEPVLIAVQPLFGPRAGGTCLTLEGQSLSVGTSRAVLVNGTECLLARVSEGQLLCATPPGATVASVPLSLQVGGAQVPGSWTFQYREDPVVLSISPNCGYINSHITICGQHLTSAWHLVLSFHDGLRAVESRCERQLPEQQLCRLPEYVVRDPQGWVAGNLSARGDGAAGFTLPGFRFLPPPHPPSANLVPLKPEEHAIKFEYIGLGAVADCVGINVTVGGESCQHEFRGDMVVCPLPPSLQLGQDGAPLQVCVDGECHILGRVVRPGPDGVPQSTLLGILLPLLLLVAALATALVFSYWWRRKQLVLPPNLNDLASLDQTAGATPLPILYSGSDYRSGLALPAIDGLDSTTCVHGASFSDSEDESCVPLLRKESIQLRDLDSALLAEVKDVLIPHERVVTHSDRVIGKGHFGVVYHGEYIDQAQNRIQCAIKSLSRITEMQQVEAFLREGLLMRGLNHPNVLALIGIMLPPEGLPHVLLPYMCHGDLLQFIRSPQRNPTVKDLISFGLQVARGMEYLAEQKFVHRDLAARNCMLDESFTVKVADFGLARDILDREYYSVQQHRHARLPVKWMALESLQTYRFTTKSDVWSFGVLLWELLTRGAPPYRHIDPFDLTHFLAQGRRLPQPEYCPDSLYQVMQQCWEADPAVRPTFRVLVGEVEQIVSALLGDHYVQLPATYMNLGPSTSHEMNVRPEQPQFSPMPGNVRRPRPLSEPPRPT
Settings: at 0.1 µM
value-type: inhibition (%)
Write it as a number; the unit % goes unstated.

In the examples that follow, each entry is paired with its recorded inhibition.
[
  {
    "molecule-smiles": "Cc1cccc(Nc2ncc(-c3ccccc3)o2)c1",
    "inhibition / %": 3.38
  },
  {
    "molecule-smiles": "COC(=O)Nc1nc2ccc(S(=O)(=O)c3ccc(NC(=O)Nc4cc(C(F)(F)F)ccc4F)cc3)cc2[nH]1",
    "inhibition / %": 0.24
  },
  {
    "molecule-smiles": "Cc1ccc2c(-c3ccnc(Nc4ccccc4)n3)c(-c3ccc(F)cc3)nn2n1",
    "inhibition / %": 0.11
  },
  {
    "molecule-smiles": "CN1CCC(n2cnc(-c3ccc(F)cc3)c2-c2ccnc(N)n2)CC1",
    "inhibition / %": 5.16
  },
  {
    "molecule-smiles": "Nc1nc(-c2ccc(F)cc2)c(-c2ccc3ncccc3n2)s1",
    "inhibition / %": -8.7
  }
]

// fetch inhibition given entry Nc1nc(-c2cccc(Cl)c2)c(-c2ccc3ncccc3n2)s1
4.75

// fetch inhibition given entry COc1cccc(-c2c[nH]c3c(N/N=C/c4ccncc4)ncnc23)c1
9.37

// fetch inhibition given entry CCN1CCC(CC(=O)Nc2n[nH]c3nnc(-c4cccc(F)c4F)cc23)CC1
-3.31

// fetch inhibition given entry Nc1ncc(-c2cccc(S(N)(=O)=O)c2)c2scc(-c3ccc(F)c(Cl)c3)c12
1.48

// fetch inhibition given entry N#Cc1c(NC(=O)CN2CCOCC2)sc2c1CCCC2
-0.19
